The measurements presented in this section are drawn from patent US5686486A.

The following molecules are listed with their measured inhibition at 3.3 µM values.
molecular target: HIV-1 protease (Human immunodeficiency virus type 1 group M subtype B); test: biochemical; conditions: read-out: HIV-1 Protease % Inhib, dose 3.300 uM
Parameter: inhibition at 3.3 µM (%)

COc1ccc(S(=O)(=O)Nc2cccc(C(c3c(O)c4c(oc3=O)CCCCCC4)C3CC3)c2)cc1OC (stereo not drawn); 96.8
O=c1oc2c(c(O)c1C(c1ccc(CO)s1)C1CC1)CCCCCC2 (stereo not drawn); 92.9
O=c1oc2c(c(O)c1C(c1cccc(NS(=O)(=O)c3cccc(S(=O)(=O)N(Cc4ccccc4)Cc4ccccc4)c3)c1)C1CC1)CCCCCC2 (stereo not drawn); 77.7
O=c1oc2c(c(O)c1C(c1cccc(NS(=O)(=O)c3ccc(Cl)cc3Cl)c1)C1CC1)CCCCCC2 (stereo not drawn); 95.2
O=c1oc2c(c(O)c1C(c1cccc(NS(=O)(=O)c3cc(Br)c(Br)s3)c1)C1CC1)CCCCCC2 (stereo not drawn); 109
CC(C)CC(c1cccc(NS(=O)(=O)c2cccnc2)c1)c1c(O)c2c(oc1=O)CCCCCC2 (stereo not drawn); 103
CC(C)(C)OC(=O)NCC(=O)Nc1cccc(C(c2c(O)c3c(oc2=O)CCCCCC3)C2CC2)c1 (single isomer, unassigned) [Example 238]; 99.9
Cc1cccc(S(=O)(=O)Nc2cccc(C(c3c(O)c4c(oc3=O)CCCCCC4)C3CC3)c2)c1 (stereo not drawn); 94.6
O=c1oc2c(c(O)c1C(c1ccc(CCO)s1)C1CC1)CCCCCC2 (stereo not drawn); 104
CN(C)c1ccc(N=Nc2ccc(S(=O)(=O)Nc3cccc(C(c4c(O)c5c(oc4=O)CCCCCC5)C4CC4)c3)cc2)cc1 (stereo not drawn); 76.5
O=c1oc2c(c(O)c1C(c1cccc(NS(=O)(=O)c3ccc(N=Nc4ccccc4)cc3)c1)C1CC1)CCCCCC2 (stereo not drawn); 91.3
COc1cccc(Br)c1S(=O)(=O)Nc1cccc(C(c2c(O)c3c(oc2=O)CCCCCC3)C2CC2)c1 (stereo not drawn); 116
CCCCS(=O)(=O)Nc1cccc(C(c2c(O)c3c(oc2=O)CCCCCC3)C2CC2)c1 (stereo not drawn); 106
O=c1oc2c(c(O)c1[C@H](c1cccc(NS(=O)(=O)c3cccc4cccnc34)c1)C1CC1)CCCCCC2; 95
CCC(c1cccs1)c1c(O)c2c(oc1=O)CCCCCC2 (stereo not drawn); 82.5
CCOC(=O)Nc1cccc(C(c2c(O)c3c(oc2=O)CCCCCC3)C2CC2)c1 (stereo not drawn); 87.6
O=c1oc2c(c(O)c1[C@H](c1cccc(NS(=O)(=O)c3ccc(S(=O)(=O)c4ccccc4)s3)c1)C1CC1)CCCCCC2; 108
CC(C)CC(c1cccc(NS(=O)(=O)c2ccc(C#N)cc2)c1)c1c(O)c2c(oc1=O)CCCCCC2 (stereo not drawn); 102
O=c1oc2c(c(O)c1C(c1ccccc1)C1CC1)CCCCC2CC1CCCO1 (stereo not drawn); 89.3
O=c1oc2c(c(O)c1C(c1cccc(NS(=O)(=O)c3ccc(F)cc3F)c1)C1CC1)CCCCCC2 (stereo not drawn); 103
O=c1oc2c(c(O)c1C(c1cccc(NS(=O)(=O)c3cc(Cl)sc3Cl)c1)C1CC1)CCCCCC2 (stereo not drawn); 97.8
CCNC(=O)Nc1cccc(C(c2c(O)c3c(oc2=O)CCCCCC3)C2CC2)c1 (stereo not drawn); 85.7
O=c1oc2c(c(O)c1C(c1cccc(NS(=O)(=O)c3cccc(NCCO)c3)c1)C1CC1)CCCCCC2 (stereo not drawn); 103
Cc1nn(C)c(Cl)c1S(=O)(=O)Nc1cccc(C(c2c(O)c3c(oc2=O)CCCCCC3)C2CC2)c1 (stereo not drawn); 81.1
O=c1oc2c(c(O)c1C(c1ccccc1)C1CC1)CCCCC2Cc1ccccc1 (stereo not drawn); 83.7
CC(O)CC1CCCCCc2c1oc(=O)c(C(c1ccccc1)C1CC1)c2O (stereo not drawn); 99.3
CN(C)c1ccc(S(=O)(=O)Nc2cccc(C(c3c(O)c4c(oc3=O)CCCCCC4)C3CC3)c2)cc1 (stereo not drawn); 104
CCCCC(c1cccc(NS(=O)(=O)c2ccc(C#N)cc2)c1)c1c(O)c2c(oc1=O)CCCCCC2 (stereo not drawn); 97.9
O=C(O)c1ccc(S(=O)(=O)Nc2cccc(C(c3c(O)c4c(oc3=O)CCCCCC4)C3CC3)c2)cc1 (stereo not drawn); 94.7
O=C(Nc1cccc(S(=O)(=O)Nc2cccc(C(c3c(O)c4c(oc3=O)CCCCCC4)C3CC3)c2)c1)c1ccccc1 (stereo not drawn); 93.9
